- Assay Target: BDKRB2 (Homo sapiens, UniProt P30411)
- Construct: purchased Promega (in-house HiBiT-GPCR construct library, NanoBRET)
- Sequence (P30411 whole entry): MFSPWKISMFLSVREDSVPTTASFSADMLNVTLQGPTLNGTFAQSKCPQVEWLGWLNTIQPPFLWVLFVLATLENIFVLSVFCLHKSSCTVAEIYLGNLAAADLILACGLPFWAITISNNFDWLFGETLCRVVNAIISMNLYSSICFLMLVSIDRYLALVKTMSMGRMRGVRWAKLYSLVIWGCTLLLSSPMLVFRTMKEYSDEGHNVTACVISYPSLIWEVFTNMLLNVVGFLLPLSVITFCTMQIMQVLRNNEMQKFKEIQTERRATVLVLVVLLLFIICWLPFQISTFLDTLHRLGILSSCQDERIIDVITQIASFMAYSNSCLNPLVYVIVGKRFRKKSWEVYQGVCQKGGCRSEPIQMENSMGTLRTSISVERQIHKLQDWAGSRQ
- Method: NanoBRET screen HiBiT-BDKRB2 in HEK293
- Type: binding
- Assay Conditions: BDKRB2; tracer 0.1μM
Recorded NanoBRET Fold Response values for a group of molecules are listed next.

- Molecule: "COc1ccccc1N1CCN(CCCCN2C(=O)c3ccc(CNC(=O)CCOCCNC(=O)c4ccc(CNC(=O)CCc5ccc6n5[B-](F)(F)[N+]5=C(c7ccc[nH]7)C=CC5=C6)cc4)cc3C2=O)CC1"
  NanoBRET Fold Response: 0.97
- Molecule: "Cc1nc2n(c(=O)c1CCN1CCC(c3noc4cc(F)ccc34)CC1)CCCC2OC(=O)NCCOCCOCCOCCOCCNC(=O)CCc1ccc2n1[B-](F)(F)[N+]1=C(c3ccc[nH]3)C=CC1=C2 (centres unmarked)"
  NanoBRET Fold Response: 0.92
- Molecule: "CC(C)N(CC[C@H](c1ccccc1)c1cc(CCNC(=O)c2ccc(CNC(=O)CCc3ccc4n3[B-](F)(F)[N+]3=C(c5ccc[nH]5)C=CC3=C4)cc2)ccc1O)C(C)C"
  NanoBRET Fold Response: 1.04
- Molecule: "O=C(CCc1ccc2n1[B-](F)(F)[N+]1=C(c3ccc[nH]3)C=CC1=C2)NCCOCCOCCNC(=O)OCCOCCN1CCN(C2=Nc3ccccc3Sc3ccccc32)CC1"
  NanoBRET Fold Response: 1.11
- Molecule: "Cc1cc2c(s1)Nc1ccccc1N=C2N1CCN(CCCNC(=O)CCOCCOCCOCCOCCNC(=O)CCc2ccc3n2[B-](F)(F)[N+]2=C(c4ccc[nH]4)C=CC2=C3)CC1"
  NanoBRET Fold Response: 0.97
- Molecule: "O=C(CCc1ccc2n1[B-](F)(F)[N+]1=C(c3ccc[nH]3)C=CC1=C2)NCc1ccc(C(=O)NCCOCCC(=O)N[C@@H]2CC[C@@]3(O)[C@H]4Cc5ccc(O)c6c5[C@@]3(CCN4CC3CC3)[C@H]2O6)cc1 [Naltrexone-3-NB590]"
  NanoBRET Fold Response: 1.07
- Molecule: "CC(C)N(CC[C@H](c1ccccc1)c1cc(CCNC(=O)CCOCCOCCOCCOCCNC(=O)CCc2ccc3n2[B-](F)(F)[N+]2=C(c4ccc[nH]4)C=CC2=C3)ccc1O)C(C)C"
  NanoBRET Fold Response: 0.96
- Molecule: "COc1ccccc1N1CCN(CCCCN2C(=O)c3ccc(CNC(=O)CCOCCOCCOCCOCCNC(=O)CCc4ccc5n4[B-](F)(F)[N+]4=C(c6ccc[nH]6)C=CC4=C5)cc3C2=O)CC1"
  NanoBRET Fold Response: 1.08
- Molecule: "O=C(CCOCCOCCOCCOCCNC(=O)CCc1ccc2n1[B-](F)(F)[N+]1=C(c3ccc[nH]3)C=CC1=C2)NCCCN1CCN(C2=Nc3ccccc3Oc3ccc(Cl)cc32)CC1"
  NanoBRET Fold Response: 1.08
- Molecule: "N#CN=C(NCCCOc1cccc(CN2CCCCC2)c1)NCCNC(=O)CCOCCOCCOCCOCCNC(=O)CCc1ccc2n1[B-](F)(F)[N+]1=C(c3ccc[nH]3)C=CC1=C2"
  NanoBRET Fold Response: 1.00
- Molecule: "CCCn1c(=O)c2[nH]c(-c3ccc(OCC(=O)NCCNC(=O)CCOCCNC(=O)c4ccc(CNC(=O)CCc5ccc6n5[B-](F)(F)[N+]5=C(c7ccc[nH]7)C=CC5=C6)cc4)cc3)nc2n(CCC)c1=O"
  NanoBRET Fold Response: 1.00
